Tested on: MDA-MB-231 breast
protocol.text: NCI tumour cell line growth inhibition, 48 h
Below: a set of entries, each annotated with reported TGI.
quantity.kind: TGI

In [3]: df
Out[3]:
                                    compound    result
 0           O=C(/C=C\Sc1ccccn1)c1cccc(Br)c1   5.96 µM
 1  COc1cc(-c2nn(-c3ccc(NC(=O)NCCNS(=O)(=O)c4ccc(F)cc4)cc3)cc2-c2ccncc2)ccc1Cl   3.38 µM
 2  COc1ccc(-c2nc3c(-c4ccccc4)nc(-c4ccccc4)cn3c2-c2ccc(OC)cc2)cc1  > 100 µM
 3            Cc1noc(C)c1-n1nc2ccc3nonc3c2n1  > 100 µM
 4  O=C1CSC2=NC3=C(CSC/C3=C\c3ccc(Cl)cc3)C(c3ccc(Cl)cc3)N12 (stereo unspecified)  > 100 µM
 5  O=C(Nc1sccc1S(=O)(=O)c1ccc(Cl)cc1)c1ccc(Cl)cc1  > 100 µM
 6  O=C(c1cccc(F)c1F)N1CCc2c([nH]c3ccccc23)C1c1ccc2c(c1)OCO2 (stereo unspecified)   74.5 µM
 7            NC(=S)Nc1[nH]c(=S)nc2[nH]ccc12  > 100 µM
 8            CCN(Cc1ccccn1)c1ccc(CO)c(Cl)c1  > 100 µM
 9  CC(C)(Br)C(Br)CCC1(C(Br)CBr)CO1 (stereo unspecified)   > 10 µM
10      COc1ccc(/C=C/C(=O)c2ccc(Cl)cc2Cl)cc1   46.7 µM
